Test system: SK-MEL-28 melanoma
Assay: NCI-60 one-dose screen, 48 h
Details: 10 µM unless noted
Protocol: Growth inhibition of the SK-MEL-28 human tumor cell line is measured as a screen for anti-cancer activity. Cells are grown in 96 well plates and exposed to the test compound for 48 hours. Compounds are tested at a single concentration, which is 10^-5 M for most compounds. The reported endpoint is percent growth (GI% or GIPRCNT), where numbers from 0 - 100% represent growth inhibition, and numbers from -100% - 0 represent cell death. For example, a value of 40 represents 60% growth inhibition. […]
This is part of a sample that, as a whole, favours compounds with a hit. Of some 83,000 tested, about 20% had one in any assay. Activity calls are given as the source filed them. How the source made its calls: active means growth percent below 10; inactive means the rest.
Possible outcomes: label 1 (active), label 0 (inactive)

Compound | Classification
COC(=O)[C@@]12OC[C@]34[C@H]([C@@H](O)[C@@H]1O)[C@@]1(C)[C@H](O)C(=O)C=C(C)[C@@H]1C[C@H]3OC(=O)C(OC(C)=O)[C@@H]24 (stereo not given in full) | label 1
N#CSCc1ccc(CSC#N)c(Cl)c1 | label 0
NC1=CC(=O)c2ccccc2C1=O | label 0
CCOC(=O)/C=C/c1ccc([N+](=O)[O-])o1 | label 0
CCCCCCCCCCCCCCCCCCOP(=O)([O-])OC1CC[N+](C)(C)CC1 | label 0
